# Measured Target: T1, human MDL-1 (human, UniProt Q9NY25 1-188)
# T1 sequence: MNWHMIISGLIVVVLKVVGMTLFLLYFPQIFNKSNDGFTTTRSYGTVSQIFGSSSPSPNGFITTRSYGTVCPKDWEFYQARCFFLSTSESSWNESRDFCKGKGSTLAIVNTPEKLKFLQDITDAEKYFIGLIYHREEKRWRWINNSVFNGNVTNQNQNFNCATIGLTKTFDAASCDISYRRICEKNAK
# Test Method Notes: cell-based or functional assay
Reported Endpoint: secreted beta-hexosaminidase, OD (405-570), DT808 mouse mast cells, cross-link

DX241 (antibody, V domains shown, Rodent anti-human MDL-1 monoclonal antibody from a hybridoma; VL of the kappa subclass; also called anti-MDL-1 antibody clone DX241; ATCC PTA-8374) VH: DVKLVESGGGLVKLGGSLKLSCAASGFTFSSYYMSWVRQTPDKRLELVAAINSNGGTTYYPDTVKGRFTISRDNAKNTLYLQMSSLKPEDTALFYCVRDGEFGHYFDYWGQGTTLTVSS VL: SIVMTQTPKFLLVSAGDRVTITCKASQSVNNDVAWYQQKPGQSPKLLIYYASNRYTGVPDRFTGSGYGTDFTFTISTVQAEDLAVYFCQQDYNSPLTFGAGTKLELKR	3.25 OD (405-570)
DX297 (antibody, V domains shown) VH: EVQLVESGGDLVKPGGSLKLSCTASGFAFSNYDMSWVRQTPEKRLEWVAYISGGGGTTYYSDTVKGRFTISRDNARNTLYLQMSSLKSEDTAIYYCARHPIYYGKPYWGQGTTLTVSS VL: DIVLTQSPASLAVSLGQRATISCRASESVEHYGTSLMQWYQQKPGQPPRLLIYAASNVESGVPARFSGGGSGTDFSLNIHPVEEDDIAMYFCQQNRKVPWTFGGGTKLEIKR	3.28 OD (405-570)
DX244 (antibody, V domains shown, Parental rodent anti-human MDL-1 monoclonal antibody (not the humanized form); VL of the kappa subclass; also called anti-MDL-1 antibody clone DX244; ATCC PTA-8375) VH: QIQLVQSGPELKKPGETVKISCKASGYTFTIYAMNWVKQAPGKGLEWMGWINTDTGEPTYADDFKGRFAFSLETSASTAYLQINNLKNEDMATYFCARSSEVFYDYRFDYWGQGTALTVSS VL: DIQMTQSPSSLSASLGERVSLTCRASQDIGSSLNWLQQEPDGTIKRLIYATSNLDSGVPKRFSGSRSGSDYSLTISSLESEDFVHYYCLQYASSPFTFGSGTKLEIKR	3.36 OD (405-570)

Note: attention shifts to another entry.
## Input Which secreted beta-hexosaminidase, OD (405-570), DT808 mouse mast cells, cross-link reading was recorded for the binder DX246 (antibody, V domains shown, Rodent anti-human MDL-1 monoclonal antibody from a hybridoma; VL of the kappa subclass; also called anti-MDL-1 antibody clone DX246; ATCC PTA-8376) VH: QVTLKESGPGILKPSQTLSLTCSFSGFSLSTSGMNVGWIRQPSGKGLEWLAHIWWDDDKYYNPSLKSQLTISKDTSRNQVFLKITSVDTADTATYYCARRAFYGSNYDYYAMDYWGQGTSVTVSS VL: ENVLTQSPAIMSASPGEKVTMTCSVSSSVSYIHWYQQKSSTSPKLWIYDTSKLASGVPGRFSGSGSGNSYSLTISSMEAEDVATYYCFQGSGYPLTFGAGTKLELKR ?
## Output 3.23 OD (405-570)
